Taken from patent US10221163B2.

System: Serratia marcescens expressing IMP-1 (CL5741)
Assay type: cell-based
Settings: IMP-1 strain CL5741, with imipenem 1 μg/ml, 95% inhibition of growth
Readout: Serratia marcescens MITC95 (µM)

INSERT INTO assay_data (item_smiles, quantity_unit, reading) VALUES
  ('NCc1nc2c(-c3ccc(S(=O)(=O)NC(CN)CN)c(S(N)(=O)=O)c3-c3nn[nH]n3)cccc2[nH]1', 'µM', 0.7813),
  ('C[C@H](N)Cc1nc2c(-c3ccc(S(=O)(=O)N[C@@H]4CCNC4)c(S(N)(=O)=O)c3-c3nn[nH]n3)cccc2[nH]1', 'µM', 1.563),
  ('N[C@H]1C=C(c2ccc(S(=O)(=O)N[C@@H]3CCNC3)c(S(N)(=O)=O)c2-c2nn[nH]n2)CCC1', 'µM', 1.563),
  ('C[N+]1(C)CC(NS(=O)(=O)c2ccc(-c3cccc4[nH]c(N)nc34)c(-c3nn[nH]n3)c2S(N)(=O)=O)C1.O=C([O-])O', 'µM', 1.563);

----------
Serratia marcescens MITC95 values, listed per item
System: Serratia marcescens expressing IMP-1 (CL5741)
Type: cell-based
Conditions: IMP-1 strain CL5741, with imipenem 1 μg/ml, 95% inhibition of growth
Readout: Serratia marcescens MITC95

INSERT INTO assay_data (item_smiles, assay_target, readout, reading) VALUES
  ('NC[C@@H](N)CNS(=O)(=O)c1ccc(-c2cccc3[nH]c(N)nc23)c(-c2nn[nH]n2)c1S(N)(=O)=O', 'Serratia marcescens expressing IMP-1 (CL5741)', 'Serratia marcescens MITC95', '1.563 µM'),
  ('NC[C@@H](N)CNS(=O)(=O)c1ccc(-c2cnc3cc[nH]c3c2)c(-c2nn[nH]n2)c1S(N)(=O)=O', 'Serratia marcescens expressing IMP-1 (CL5741)', 'Serratia marcescens MITC95', '1.563 µM'),
  ('NCC(F)(F)c1nc2c(-c3ccc(S(=O)(=O)N[C@H]4CCNC4)c(S(N)(=O)=O)c3-c3nn[nH]n3)cccc2[nH]1', 'Serratia marcescens expressing IMP-1 (CL5741)', 'Serratia marcescens MITC95', '3.125 µM'),
  ('Cn1nc2cccc(-c3ccc(S(=O)(=O)N[C@@H]4CCNC4)c(S(N)(=O)=O)c3-c3nn[nH]n3)c2n1', 'Serratia marcescens expressing IMP-1 (CL5741)', 'Serratia marcescens MITC95', '1.563 µM'),
  ('NCc1nc2cc(-c3ccc(S(=O)(=O)NC[C@@H](O)CN)c(S(N)(=O)=O)c3-c3nn[nH]n3)ccc2[nH]1', 'Serratia marcescens expressing IMP-1 (CL5741)', 'Serratia marcescens MITC95', '1.563 µM'),
  ('NCCNCCNS(=O)(=O)c1ccc(-c2ccc(N)nc2)c(-c2nn[nH]n2)c1S(N)(=O)=O', 'Serratia marcescens expressing IMP-1 (CL5741)', 'Serratia marcescens MITC95', '0.7813 µM'),
  ('NC[C@H](O)CNS(=O)(=O)c1ccc(-c2cccc3[nH]cnc23)c(-c2nn[nH]n2)c1S(N)(=O)=O', 'Serratia marcescens expressing IMP-1 (CL5741)', 'Serratia marcescens MITC95', '1.563 µM');

----------
Test system: Pseudomonas aeruginosa MB9798 vs MB9799
Conditions: fold difference between efflux+ (MB9798) and efflux− (MB9799) strains; imipenem at 2 μg/mL
Efflux ratio values, listed per item
Readout: Efflux ratio

INSERT INTO assay_data (compound, assay_target, readout, reading) VALUES
  ('NC[C@H](O)CNS(=O)(=O)c1ccc(-c2ccc3nccn3c2)c(-c2nn[nH]n2)c1S(N)(=O)=O [Example 418]', 'Pseudomonas aeruginosa MB9798 vs MB9799', 'Efflux ratio', 2.00),
  ('Nc1nc(-c2cccc(-c3ccc(S(=O)(=O)N[C@@H]4CCNC4)c(S(N)(=O)=O)c3-c3nn[nH]n3)c2)c[nH]1 [Example 428]', 'Pseudomonas aeruginosa MB9798 vs MB9799', 'Efflux ratio', 1.00),
  ('Nc1ccc(-c2ccc(S(=O)(=O)N[C@H]3CN[C@H](CO)C3)c(S(N)(=O)=O)c2-c2nn[nH]n2)cn1 [Example 411]', 'Pseudomonas aeruginosa MB9798 vs MB9799', 'Efflux ratio', 1.00);
